Provide the reported EC50 of each item.
# Target Entity: human α7 nAChR (Homo sapiens)
# Sequence (P36544 23-502): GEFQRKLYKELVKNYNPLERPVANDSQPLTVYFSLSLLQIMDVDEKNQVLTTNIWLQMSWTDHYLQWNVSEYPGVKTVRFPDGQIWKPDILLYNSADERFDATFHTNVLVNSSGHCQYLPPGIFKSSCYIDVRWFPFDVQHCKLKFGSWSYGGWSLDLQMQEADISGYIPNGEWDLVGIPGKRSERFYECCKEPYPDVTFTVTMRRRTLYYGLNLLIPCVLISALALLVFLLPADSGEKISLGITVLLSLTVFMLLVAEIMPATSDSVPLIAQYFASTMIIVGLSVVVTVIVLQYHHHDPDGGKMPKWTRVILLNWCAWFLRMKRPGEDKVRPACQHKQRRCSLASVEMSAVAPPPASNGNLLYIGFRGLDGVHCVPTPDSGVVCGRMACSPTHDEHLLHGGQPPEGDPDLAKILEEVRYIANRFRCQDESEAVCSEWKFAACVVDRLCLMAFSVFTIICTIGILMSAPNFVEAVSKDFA
# Protocol: cell-based
# Applied Conditions: EC50 of human α7nAChR(nM), HEK293T/17 cells transfected with human α7 nAChR; PNU-120596 added; relative to epibatidine 1 μM positive control

// worked examples, EC50 included
Compound: Cc1ccc(-n2cc(C(=O)NC3CN4CCC3CC4)ccc2=O)c(Cl)c1 (stereo not drawn) [Example 29]
EC50: > 1000 nM

Compound: CC(C)Sc1cc(Cl)ccc1-n1cc(C(=O)NC2CN3CCC2CC3)ccc1=O (stereo not drawn)
EC50: 100 to 500 nM

Compound: CCCc1ccc(-n2cc(C(=O)NC3CN4CCC3CC4)ccc2=O)cc1 (stereo not drawn)
EC50: 500 to 1000 nM

Compound: O=C(NC1CN2CCC1CC2)c1ccc(=O)n(-c2ccc(-c3ccccc3)cc2)c1 (stereo not drawn)
EC50: 100 to 500 nM

Compound: CC(C)c1ccc(-n2cc(C(=O)NC3CN4CCC3CC4)ccc2=O)cc1 (stereo not drawn)
EC50: 500 to 1000 nM

Please give EC50 for each item listed below.
1. CSc1cc(C)ccc1-n1cc(C(=O)N[C@H]2CN3CCC2CC3)ccc1=O
2. Cc1ccc(-c2ccc(-n3cc(C(=O)NC4CN5CCC4CC5)ccc3=O)cc2)s1 (stereo not drawn)
3. Cc1ccc(-n2cc(C(=O)NC3CN4CCC3CC4)ccc2=O)c(C)c1 (stereo not drawn)

# output
1. < 100 nM
2. 100 to 500 nM
3. > 1000 nM

# input Param item = CSc1ccc(-n2cc(C(=O)NC3CN4CCC3CC4)ccc2=O)cc1 (stereo not drawn) ; retrieve measured EC50.
# output 100 to 500 nM
